# procedure-text: qHTS assay to identify small molecule antagonists of the estrogen receptor beta (ER-beta) signaling pathway - cell viability counter screen (AID 1259382); also: nearly all actives have a fitted effect of over 55% in size; also: potency is read from the fitted curve at half-maximal effect
# stated-conditions: ER-beta-UAS-bla HEK293T viability, CellTiter-Glo luminescence, 16 h; series mostly up to 92.4 µM
Results filed as inconclusive are left out. Calls of active or inactive are those of the source. Calls follow the shape of the dose curve; as a rule, active = well fitted cell-killing curve with a large enough effect in the repeat runs; inconclusive = weak or mixed curves; inactive = flat fitted curve, though single readings scatter.
measured-attribute: Potency

INSERT INTO results (compound, value_measured) VALUES
  ('CN(CCCC(O)c1cccnc1)N=O (stereo not drawn)', 'inactive'),
  ('CCCOCC(=Nc1ccc(Cl)cc1C(F)(F)F)n1ccnc1', '61.1 µM (active)'),
  ('COc1cc(N)c(Cl)cc1C(=O)NC1CN2CCC1CC2 (stereo not drawn)', 'inactive'),
  ('Nc1ccc(Cc2ccc(N)c(Cl)c2)cc1Cl', '46.9 µM (active)'),
  ('CC1(c2ccc(Oc3ccccc3)cc2)OC(=O)N(Nc2ccccc2)C1=O (stereo not drawn)', 'inactive'),
  ('C[C@@H]1O[C@@H](O[C@@H]2C=C3CC[C@@H]4[C@H](CC[C@]5(C)[C@@H](c6ccc(=O)oc6)CC[C@]45O)[C@@]3(C)CC2)[C@H](O)[C@H](O)[C@H]1O', '0.0094 µM (active)'),
  ('C[CH2][Hg][N]1C(=O)C2C(C1=O)C1(Cl)C(Cl)=C(Cl)C2(Cl)C1(Cl)Cl (stereo not drawn)', '11.6 µM (active)'),
  ('O=C1C=CC(=O)c2ccccc21', '27.3 µM (active)'),
  ('N#C/C=C/c1ccccc1', 'inactive'),
  ('CC(=O)[O-].CC(=O)[O-].[Hg+2]', '6.11 µM (active)'),
  ('CC(C)(C)OO', 'inactive'),
  ('Cl/C=C\CCl', 'inactive'),
  ('CN(C)C1CSSSC1', 'inactive'),
  ('CCOP(=S)(OCC)SCS(=O)(=O)C(C)(C)C', 'inactive'),
  ('CCc1ccccc1C', 'inactive'),
  ('Cc1c(Cl)c(=O)oc2cc(OP(=O)(OCCCl)OCCCl)ccc12', 'inactive'),
  ('ClC1=C(Cl)[C@]2(Cl)[C@@H]3[C@@H](Cl)[C@H](Cl)C[C@@H]3[C@@]1(Cl)C2(Cl)Cl', 'inactive'),
  ('C[C@]12CC[C@H](O)C[C@H]1CC[C@@H]1[C@@H]2C[C@@H](O)[C@]2(C)[C@@H](C3=CC(=O)OC3)CC[C@]12O', '0.77 µM (active)'),
  ('CCN', 'inactive'),
  ('COC(=O)N(C(=O)N1CO[C@@]2(C(=O)OC)Cc3cc(Cl)ccc3C2=N1)c1ccc(OC(F)(F)F)cc1', 'inactive'),
  ('O=C(CCCN1CCC2(CC1)C(=O)NCN2c1ccccc1)c1ccc(F)cc1', 'inactive'),
  ('BrCBr', 'inactive'),
  ('CC(=O)[O-].[Tl+]', '38.8 µM (active)'),
  ('CN(C)[C@@H]1C(=O)C(C(N)=O)=C(O)[C@@]2(O)C(=O)C3=C(O)c4c(O)ccc(Cl)c4[C@@](C)(O)[C@H]3C[C@@H]12', 'inactive'),
  ('BrCC(Br)c1ccccc1 (stereo not drawn)', 'inactive'),
  ('[Cl][Sb]([Cl])[Cl]', 'inactive'),
  ('O=C(O)C1C2CCC(O2)C1C(=O)O (stereo not drawn)', 'inactive'),
  ('CC(=O)[O-].CC(=O)[O-].O.O.[Cd+2]', '53.7 µM (active)'),
  ('CCC[CH2][Sn]([CH2]CCC)([CH2]CCC)[O]C(=O)c1ccccc1', '1.93 µM (active)'),
  ('[Cl][Sn]([c]1ccccc1)([c]1ccccc1)[c]1ccccc1', '0.82 µM (active)'),
  ('CC1(C)CC/C(=C/c2ccc(Cl)cc2)C1(O)Cn1cncn1 (stereo not drawn)', 'inactive'),
  ('O=[N+]([O-])c1cc([N+](=O)[O-])c2ccccc2c1', 'inactive'),
  ('C=CCOC(N)=O', 'inactive'),
  ('CN(CCCC(=O)c1cccnc1)N=O', 'inactive'),
  ('c1ccc(OCC2CO2)cc1 (stereo not drawn)', 'inactive'),
  ('CC(C)C1CCC(Cc2ccc(Cl)cc2)C1(O)Cn1cncn1 (stereo not drawn)', '67.9 µM (active)'),
  ('Oc1ccc(I)cc1', 'inactive'),
  ('O=[N+]([O-])c1ccc2ccc3cccc4ccc1c2c34', 'inactive'),
  ('CC(C)CCCCCCCOP(=O)(Oc1ccccc1)Oc1ccccc1', 'inactive'),
  ('N#Cc1ccccc1Cl', 'inactive'),
  ('ClCc1ccccc1CCl', 'inactive'),
  ('CSCCCN=C=S', 'inactive'),
  ('CCOP(=O)(NC(C)C)Oc1ccc(SC)c(C)c1 (stereo not drawn)', 'inactive'),
  ('CNC(C)Cc1ccc2c(c1)OCO2 (stereo not drawn)', 'inactive'),
  ('ClCCN1CCOCC1', 'inactive'),
  ('COc1ccc(OC)c(C=O)c1', 'inactive'),
  ('Clc1ccc(CO/N=C(\Cn2ccnc2)c2ccc(Cl)cc2Cl)c(Cl)c1', '29.8 µM (active)'),
  ('CC(C)(C)c1ccc(CSc2cnn(C(C)(C)C)c(=O)c2Cl)cc1', 'inactive');
